This collection of values is drawn from patent US11154058B2.

Recorded pest or weed control at 200 ppm for the following molecules
Tested on: Blumeria graminis f. Sp. Tritici (Erysiphe graminis f. Sp. Tritici)
test method notes: Blumeria graminis f. sp. tritici / wheat / leaf disc preventative (powdery mildew on wheat)
Assay type: in vivo
test context: foliar, compared to untreated control, read-out: disease control

Worked set:
CCCCC(O)(c1cc(C)c(/N=C/N(C)C(C)C)cc1OC)C(F)(F)F (stereo not drawn) ... ≥ 80%
CCCCOCC(O)(c1cc(C)c(/N=C/N(C)CC)cc1OC)C(F)(F)F (stereo not drawn) ... ≥ 80%

Field pest or weed control at 200 ppm (system: Blumeria graminis f. Sp. Tritici (Erysiphe graminis f. Sp. Tritici)) for entry CCO/N=C(\C)CC(O)(c1cc(C)c(/N=C/N(C)CC)cc1OC)C(F)(F)F (stereo not drawn) = ≥ 80%

----------
measured quantity: melting point

C=C(C)CC(O)(c1cc(C)c(/N=C/N(C)C(C)C)cc1OC)C(F)(F)F (centres unmarked) [Q.006] ... 90 to 95 °C
CCN(C)/C=N/c1cc(OC)c(C(O)(c2ccccc2C)C(F)(F)F)cc1C (centres unmarked) [Q.009] ... 115 to 117 °C
CCN(C)/C=N/c1cc(OC)c(C(O)(c2cc(F)cc(F)c2)C(F)(F)F)cc1C (centres unmarked) [Q.010] ... 107 to 108 °C
COc1cc(/N=C/N(C)C(C)C)c(C)cc1C(O)(C1CC1)C(F)(F)F (centres unmarked) [Q.003] ... 90 to 93 °C

Query molecule follows.
For COc1cc(/N=C/N(C)C(C)C)c(C)cc1C(O)(c1ccccc1)C(F)(F)F (centres unmarked) [Q.008] the molecule record lists melting point as 110 to 111 °C
